Assignment: determine reported TLR7-100 nM: averaged NF-κB-Luciferase relative to R848 for the given substances.
Target: human TLR7 (Homo sapiens)
Construct: HA; host or cells: 293XL-hTLR7-HA (HEK293)
Sequence (Q9NYK1 27-1049): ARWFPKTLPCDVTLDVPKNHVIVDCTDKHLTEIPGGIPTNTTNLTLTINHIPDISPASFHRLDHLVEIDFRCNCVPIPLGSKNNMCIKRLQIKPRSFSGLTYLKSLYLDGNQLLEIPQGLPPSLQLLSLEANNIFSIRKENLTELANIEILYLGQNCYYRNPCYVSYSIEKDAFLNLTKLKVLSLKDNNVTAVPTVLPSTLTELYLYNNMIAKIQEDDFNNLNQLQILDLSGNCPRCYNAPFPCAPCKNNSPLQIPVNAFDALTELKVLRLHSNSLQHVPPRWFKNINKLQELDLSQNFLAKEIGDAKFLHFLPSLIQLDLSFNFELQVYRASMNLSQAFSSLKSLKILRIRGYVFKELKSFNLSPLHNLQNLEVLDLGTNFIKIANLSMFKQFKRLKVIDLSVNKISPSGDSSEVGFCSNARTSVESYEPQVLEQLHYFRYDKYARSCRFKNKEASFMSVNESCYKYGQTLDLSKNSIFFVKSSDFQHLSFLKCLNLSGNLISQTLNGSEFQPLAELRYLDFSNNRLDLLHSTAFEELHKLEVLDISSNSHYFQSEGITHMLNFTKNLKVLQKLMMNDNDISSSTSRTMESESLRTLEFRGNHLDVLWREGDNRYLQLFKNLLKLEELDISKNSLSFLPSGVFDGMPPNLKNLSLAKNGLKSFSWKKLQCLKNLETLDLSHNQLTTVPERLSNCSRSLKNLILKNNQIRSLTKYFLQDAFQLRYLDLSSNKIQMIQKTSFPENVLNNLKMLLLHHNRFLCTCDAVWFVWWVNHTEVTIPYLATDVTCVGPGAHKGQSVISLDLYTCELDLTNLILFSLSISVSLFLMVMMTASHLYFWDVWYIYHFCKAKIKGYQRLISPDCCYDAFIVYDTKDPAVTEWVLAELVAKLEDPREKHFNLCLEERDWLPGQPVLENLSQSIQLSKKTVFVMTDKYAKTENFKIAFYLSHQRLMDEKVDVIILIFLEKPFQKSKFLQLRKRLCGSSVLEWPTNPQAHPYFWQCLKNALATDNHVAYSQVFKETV
Assay: HEK-TLR7 NF-κB-luciferase reporter, R848 stimulation
Assay type: cell-based
Conditions: HEK-TLR7; 100 nM ASO; percentage of R848 without ASO (Alharbi et al., 2020)
In the oligonucleotide strings, read from the 5' end, every base follows the letter of its sugar. An asterisk marks phosphorothioate; unmarked linkages are phosphodiester. Other units and linkages are bracketed, terminal groups are in braces. A string of capitals states the bases alone. d = 2'-deoxy (DNA); m = 2'-O-methyl
Give bare numbers, in %.

Substance	Readout Unit	Quantitative Readout
mC*mC*mC*mU*mA*A*T*G*C*T*T*T*C*C*T*mC*mU*mC*mC*mA (mC*mC*mC*mU*mA*dA*dT*dG*dC*dT*dT*dT*dC*dC*dT*mC*mU*mC*mC*mA; antisense) [[LINC-PINT1877 KL]	%	58.39

For the next question, use this substance.
Give its TLR7-100 nM: averaged NF-κB-Luciferase relative to R848 value. Item: mA*mG*mC*mA*mG*T*C*T*C*C*A*T*G*T*C*mC*mC*mA*mG*mG (AGCAGTCTCCATGTCCCAGG; antisense; sugars from the 5' end m5 d10 m5, all phosphorothioate, methylation of C not given here) [[CDKN2B-AS1]2235] 25.50

meta.source: patent US20240384268A1
